src = patent US20260234276A1

Task for the reader: assign each of the following binders its reported hCCL1 (100 nM) residual response, Protocol #2, mAb 0.4 µg/mL.
# study-system: human CCR8 (human, UniProt P51685 1-355)
# test-method-notes: cell-based or functional assay
Give bare numbers, in %.

Here's what some known entries look like.
3-14 (antibody, V domains shown) VH: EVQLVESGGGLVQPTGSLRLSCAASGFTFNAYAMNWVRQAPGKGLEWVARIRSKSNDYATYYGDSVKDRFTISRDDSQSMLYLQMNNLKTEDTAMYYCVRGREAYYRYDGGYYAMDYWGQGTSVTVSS VL: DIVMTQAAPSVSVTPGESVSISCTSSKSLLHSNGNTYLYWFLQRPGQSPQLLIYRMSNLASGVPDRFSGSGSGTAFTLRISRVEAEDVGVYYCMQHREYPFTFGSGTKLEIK :: 49
3-11 (antibody, V domains shown) VH: EVQLVESGGGLVQPKGSLKLSCAASGFTFNTYAMNWVRQAPGKGLEWVARIRSKSNNYATYYADSVKDRFTISRDDSQSMLYLQMNNLKTEDTAMYYCVRGREAYYRYDGGYYAMDYWGQGTSVTVSS VL: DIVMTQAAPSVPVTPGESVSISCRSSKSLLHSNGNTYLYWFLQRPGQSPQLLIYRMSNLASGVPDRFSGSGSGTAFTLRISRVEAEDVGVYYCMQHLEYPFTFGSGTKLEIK :: 36

Moving on to another binder below.
Entry 3-76 (antibody, human IgG1, kappa, V domains shown, humanized, human IgG1 kappa) VH: EVQLVESGGGLVQPGRSLRLSCTASGFTFNTYAMNWVRQAPGKGLEWVARIRSKSNNYATYYAASVKGRFTISRDDSKSIAYLQMNSLKTEDTAVYYCVRGREAYYRYDGGYYAMDVWGQGTTVTVSS VL: DIVMTQAAPSLPVTPGESASISCRSSKSLLHSNGNTYLYWFLQKPGQSPQLLIYRMSNLASGVPDRFSGSGSGTAFTLKISRVEAEDVGVYYCMQHLEYPFTFGSGTKLEIKR , hCCL1 (100 nM) residual response, Protocol #2, mAb 0.4 µg/mL reported as 82
